Data provenance is patent US20070128217A1.

System: rabbit serum obtained by immunizing a rabbit with the SARS-CoV strain Frankfurt 1
Assay type: binding
Parameters: unit not given here
measured_attribute: Rabbit serum looped peptides
Numbers only.

Observe how each entry below is paired with its result.
input: Item `ACIVGLMWLSYFVAS` has what recorded Rabbit serum looped peptides?
output: 0.8

input: Let us now turn to `FAFACADGTRHTYQL`
output: 0.1

input: Next record, please: `INCQDPAGGALIARC`
output: 0.6

input: Now this one: `KILVRYNTRGNTYST`
output: 0.4

Dear reader, for each entry below, please note its Rabbit serum looped peptides.
1. PFHPLADNKFALTCT
2. LVDFQVTIAEILIII
3. GALIARCWYLHEGHQ
4. CELYHYQECVRGTTV
5. LIARCWYLHEGHQTA
6. SSIVRQLFKPLTKKN
7. LEQWNLVIGFLFLAW

output:
1. 0.4
2. 0.3
3. 0.0
4. 0.2
5. 0.0
6. 0.5
7. 0.4
